molecular target: Beta-secretase 2 (Homo sapiens); assay: Inhibition of recombinant BACE2 (unknown origin) using FAM-SEVNLDAEFK-TAMRA as substrate incubated for 30 mins prior to substrate addition by fluorimetric analysis
Sequence (Q9Y5Z0 whole entry): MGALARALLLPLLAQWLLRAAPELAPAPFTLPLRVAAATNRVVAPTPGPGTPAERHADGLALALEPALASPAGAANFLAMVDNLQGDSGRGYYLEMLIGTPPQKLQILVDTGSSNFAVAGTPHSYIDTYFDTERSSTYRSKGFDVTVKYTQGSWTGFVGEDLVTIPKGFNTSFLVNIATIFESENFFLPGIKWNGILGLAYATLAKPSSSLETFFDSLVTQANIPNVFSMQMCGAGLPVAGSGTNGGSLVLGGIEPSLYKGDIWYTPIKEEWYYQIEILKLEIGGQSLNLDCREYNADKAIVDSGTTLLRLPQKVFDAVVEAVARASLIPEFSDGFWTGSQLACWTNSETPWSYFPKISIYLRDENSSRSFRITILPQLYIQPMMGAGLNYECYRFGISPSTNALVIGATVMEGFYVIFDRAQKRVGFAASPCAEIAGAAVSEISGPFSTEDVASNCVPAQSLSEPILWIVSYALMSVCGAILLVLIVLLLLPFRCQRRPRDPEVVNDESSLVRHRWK
The following compounds are listed with their measured pIC50 values.
Answer as the number alone; pIC50 is minus log10 of concentration in mol/L.

compound: CC(C)C(C(=O)NCc1ccc(CN)cc1)c1ccc(-c2ccccc2)cc1 (centres undefined)
targetDesc: Beta-secretase 2 (Homo sapiens)
quantitativeReadout: 4.00

What value of measured pIC50 is listed for NCc1ccc(CNC(=O)Cc2ccc(-c3c(F)c(F)c(F)c(F)c3F)cc2)cc1 ?
3.61

Record: NCc1ccc(CNC(=O)Cc2ccc(-c3cccc(C(F)(F)F)c3)cc2)cc1
3.50

Cool, now CC(C(=O)NCc1ccc(CN)cc1)c1ccc(-c2ccccc2)c(F)c1 (centres undefined)
3.68

What do you have for C[C@@H](C(=O)NCc1ccc(CN)cc1)c1ccc(-c2ccccc2)c(F)c1 ?
3.71

What do you get for NCc1ccc(CNC(=O)C(Cc2ccccc2)c2ccc(-c3ccccc3)cc2)cc1 (centres undefined) ?
4.68

Again, but for NCc1ccc(CNC(=O)Cc2ccc(-c3cc(C(F)(F)F)cc(C(F)(F)F)c3)cc2)cc1
4.48

---

Reported inhibition is given for each of the following compounds.
target: Beta-secretase 1 (Homo sapiens, UniProt P56817); test: Inhibition of recombinant BACE1 (unknown origin) using FAM-SEVNLDAEFK-TAMRA as substrate at 100 uM incubated for 30 mins prior to substrate addition by fluorimetric analysis relative to control
Sequence (P56817 whole entry): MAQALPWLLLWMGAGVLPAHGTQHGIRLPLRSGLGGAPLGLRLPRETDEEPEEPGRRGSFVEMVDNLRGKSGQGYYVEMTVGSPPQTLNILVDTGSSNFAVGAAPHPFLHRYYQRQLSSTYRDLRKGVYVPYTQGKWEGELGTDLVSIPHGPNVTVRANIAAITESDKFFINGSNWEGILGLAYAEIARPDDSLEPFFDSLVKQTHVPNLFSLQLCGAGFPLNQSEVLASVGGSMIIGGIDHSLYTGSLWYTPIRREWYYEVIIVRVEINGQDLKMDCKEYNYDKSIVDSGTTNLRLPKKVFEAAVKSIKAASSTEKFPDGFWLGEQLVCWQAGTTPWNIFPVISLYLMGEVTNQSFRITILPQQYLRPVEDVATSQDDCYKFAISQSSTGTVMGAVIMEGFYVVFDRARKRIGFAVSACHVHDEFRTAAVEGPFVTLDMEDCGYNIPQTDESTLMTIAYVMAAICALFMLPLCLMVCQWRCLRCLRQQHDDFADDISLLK

The following compounds have reported results that may help.
compound: NCc1ccc(CNC(=O)Cc2ccc(-c3ccccc3)cc2O)cc1
targetDesc: Beta-secretase 1 (Homo sapiens, UniProt P56817)
inhibition: 42.5%
//
compound: C[C@@H](C(=O)NCc1ccc(CN)cc1)c1ccc(-c2ccccc2)c(F)c1
targetDesc: Beta-secretase 1 (Homo sapiens, UniProt P56817)
inhibition: 55.5%

Now turn to the next compound.
Consider the compound shown here: CC(C(=O)NCc1ccc(CN)cc1)c1ccc(-c2ccccc2)c(F)c1 (centres undefined) What is its recorded inhibition?
51.7%

---

assay: Cytotoxicity against HEK293 cells assessed as cell viability at 100 uM after 24 hrs by MTT assay relative to control; format: cell-based; conditions: human, read-out: Activity
endpoint: viability at 24 h, 100 µM
Could you give the number and then its unit, please?

molecule: CCN(CC)Cc1ccc(CNC(=O)Cc2ccc(-c3ccccc3)cc2)cc1
endpoint: viability at 24 h, 100 µM
result: 38%

molecule: COc1ccc(CNC(=O)Cc2ccc(-c3ccccc3)cc2)cc1
endpoint: viability at 24 h, 100 µM
result: 82%

molecule: O=C(Cc1ccc(-c2c(F)c(F)c(F)c(F)c2F)cc1)NCc1ccccc1
endpoint: viability at 24 h, 100 µM
result: 61%

Form field: reported viability at 24 h, 100 µM of O=C(Cc1ccc(-c2ccccc2)cc1)NCc1ccccc1
93%

And C[C@@H](C(=O)NCc1ccc(CN)cc1)c1ccc(-c2ccccc2)c(F)c1 ?
18%

Request: O=C(Cc1ccc(-c2cccc(C(F)(F)F)c2)cc1)NCc1ccccc1
27%

Request: NCc1ccc(CNC(=O)C(Cc2ccccc2)c2ccc(-c3ccccc3)cc2)cc1 (stereo not given)
15%

Try this molecule next: NCc1ccc(CNC(=O)Cc2ccc(-c3cc(C(F)(F)F)cc(C(F)(F)F)c3)cc2)cc1
8%

Subsequent entry: NCc1ccc(CNC(=O)Cc2ccc(-c3ccccc3)cc2O)cc1
18%

Also CC(C)C(C(=O)NCc1ccc(CN)cc1)c1ccc(-c2ccccc2)cc1 (stereo not given) , if possible.
50%

The reported measurements were obtained from ChEMBL document CHEMBL2321672.
